target: HA of ca A/Netherlands/219/03 (H7N7) (influenza A virus); assay: cell-based or functional assay
Some binders, each annotated with its measured Neutralization IC50, H7-NLD03.
Give the quantity in µg/mL, number only.

Please review the entries below; each comes with its answer.
Antibody 5 (antibody, V domains shown) VH: QVQLQQSGPGLVKPSQTLSLTCAISGDRVSSNSAVWNWIRQSPSRGLEWLGRTYYRSKWYYDYAESVKSRIVIDPDTSKNQVSLQLNSVTPEDSAIYYCARGGHITVFGLNIDAYDIWGQGAMVTVSS VL: DIQMTQSPSSLSASVGDRVTISCRAQSLSSYLHWYQQKPGQPPKLLIYAATTLQSGVPSRFSGSGSGTDFTLTISTFQAEDVATYYCQQSRTFGQGTKVEIK	4.14
Antibody 8 (antibody, V domains shown) VH: QVQLQQSGPGLVKPSQTLSLTCVISGDTVSSNRATWNWMRQSPLRGLEWLGRTYYRSKWYNDYAVSVKSRVVINPDTSKNQVSLQLNTVTPDDSGVYFCARGGHITVFGVNIDAFDIWGLGTKVTVSS VL: DIQMTQSPSSLSASVGDRVTISCRASQRLNSYLHWYQQTPGQAPKLLIYATSTLQSGVSPRFSGSGSGTDFTLTISSLQPEDVATYYCQLSRTFGHGTKVEIK	12.8
Antibody 3 (antibody, V domains shown) VH: QVQLQESGPGLVKPSQTLSLTCAISGDSVSSNNAVWNWIRQSPSRGLEWLGRTYYRSKWYNDYAESVKSRITVNPDTSKNQFSLHLKSVTPEDTAVFYCVRSGHITVFGVNVDAFDMWGQGTMVTVSS VL: DIQMTQSPSSLSASVGDRVTITCRTSQSLSSYLHWYQQKPGKAPKLLIYAASSLQSGVPSRFSGSGSGTDFTLTISSLQPEDFATYYCQQSRTFGQGTKVEIK	4.78

Would you kindly look at the next entry?
IN: Give its Neutralization IC50, H7-NLD03 value. Item: Antibody 10 (antibody, V domains shown) VH: QVQLQQSGPGLVKPSQTLSLTCAISGDSVSSNSATWNWIRQSPSRGLEWLGRTYYRSKWYNDYADFLKRRITINPDTSNNEVSLRLTSVTPDDTALYYCARGGHITVFGVNIDAFDVWGQGTMVTVSS VL: DIQMTQSPSSLSASVGDRITISCRTSQSLRSYLHWYQQKPGKAPKLLIYASSTLQSGVPSRFSGSGSGTDFTLTISNLQPEDFATYYCQLSRTFGQGTKVEIK
OUT: 3.8

Where do the numbers come from? From patent US20160257732A1.
